- TARGET_ENTITY: Substance-P receptor (Homo sapiens)
- Sequence (P25103 whole entry): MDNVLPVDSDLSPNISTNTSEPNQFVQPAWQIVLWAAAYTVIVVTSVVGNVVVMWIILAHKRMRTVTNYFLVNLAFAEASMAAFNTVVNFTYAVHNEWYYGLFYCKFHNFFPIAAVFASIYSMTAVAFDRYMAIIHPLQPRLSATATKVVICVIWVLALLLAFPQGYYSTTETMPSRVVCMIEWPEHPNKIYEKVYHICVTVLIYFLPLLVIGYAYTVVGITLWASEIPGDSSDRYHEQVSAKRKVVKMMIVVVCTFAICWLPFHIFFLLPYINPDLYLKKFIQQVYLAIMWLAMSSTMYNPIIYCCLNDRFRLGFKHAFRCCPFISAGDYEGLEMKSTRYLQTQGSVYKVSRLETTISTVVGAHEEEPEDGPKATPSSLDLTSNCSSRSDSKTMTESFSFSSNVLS
- TEST_DESCRIPTION: Compound was tested for binding affinity against human NK1 receptor
MEASURED_ENDPOINT: IC50
Field: value (include unit after the number)

Inquiry: What IC50 value was documented for this molecule, CC(NC(=O)[C@@](C)(Cc1cc2ccccc2[nH]1)NC(=O)OC(c1ccccc1)C(C)C)c1ccccc1 (stereo partly specified) ?
Reply text: 1.4 µM
